System: MBMMφ cells
testDescription: TRAP activity assay, differentiation of MBMMφ cells induced with RANKL and M-CSF
Type: cell-based, mouse
testConditions: Mus musculus; 2 days with compound, then 20 ng/ml RANKL and 10 ng/ml M-CSF for 5 days; read-out: IC50, s-TRAP activity (inhibition of differentiation of MBMMφ cells)
The compounds listed here are annotated with their IC50.

compound | testSystem | unit | comparisonSign | IC50
O=c1cc(-c2ccccc2)oc2ccccc12 [flavone, reference compound] | MBMMφ cells | µM | > | 20
COc1ccc2oc(-c3ccccc3)cc(=O)c2c1 | MBMMφ cells | µM | = | 5.4
COc1ccc2c(=O)cc(-c3ccccc3)oc2c1 | MBMMφ cells | µM | = | 7.1
O=c1cc(-c2ccccc2)oc2cc(O)ccc12 [7-hydroxy flavone] | MBMMφ cells | µM | = | 10.9
O=c1cc(-c2ccccc2)oc2ccc(O)cc12 [6-hydroxy flavone] | MBMMφ cells | µM | = | 7.3
